Attribution: PubChem BioAssay AID2060604

- Tested on: 379773-124-R-J2-PDC complex spheroids, viability % test/control;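 also: compound exposure lasted seven days before the viability readout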
- METHOD NOTES: Anticancer human tumor 379773-124-R-J2-PDC patient-derived endometrial carcinoma cell line growth inhibition [CLK]
- EXPERIMENTAL CONTEXT: second compound 0.1 µM; first compound 10 µM; stronger effect = lower value
Classes are defined on viability, T/C with ranges lower = under 2%, middle = from 2% up to 30%, upper = 30% and over

# COMPOUND, CLASSIFICATION
measured = [
    ("O=c1[nH]cc(F)c(=O)[nH]1 + CN1CCN(c2cc(C(=O)Nc3cc4cc(-c5cnn(C)c5)ccc4cn3)ccn2)CC1", "upper"),
    ("COC1C=CCC(C)C(C)S(=O)(=O)NC(=O)c2ccc3c(c2)N(CC2CCC21)CC1(CCCc2cc(Cl)ccc21)CO3 (stereo not given) + CNC(=O)c1ccc(Nc2nc(OC3CCCC3)c3c(-c4ccc5nc(C)oc5c4)c[nH]c3n2)c(OC)c1", "middle"),
    ("CC1(C)CCC(CN2CCN(c3ccc(C(=O)NS(=O)(=O)c4ccc(NCC5CCOCC5)c([N+](=O)[O-])c4)c(Oc4cnc5[nH]ccc5c4)c3)CC2)=C(c2ccc(Cl)cc2)C1 + CN1CCN(c2cc(C(=O)Nc3cc4cc(-c5cnn(C)c5)ccc4cn3)ccn2)CC1", "lower"),
    ("CC(=O)O[C@H]1C(=O)[C@@]2(C)[C@H]([C@H](OC(=O)c3ccccc3)[C@]3(O)C[C@H](OC(=O)[C@H](O)[C@@H](NC(=O)c4ccccc4)c4ccccc4)C(C)=C1C3(C)C)[C@]1(OC(C)=O)CO[C@@H]1C[C@@H]2O + CN1CCN(c2cc(C(=O)Nc3cc4cc(-c5cnn(C)c5)ccc4cn3)ccn2)CC1", "middle"),
    ("CC1COCCN1c1cc(C2(S(C)(=N)=O)CC2)nc(-c2ccnc3[nH]ccc23)n1 (stereo not given) + CN1CCN(c2cc(C(=O)Nc3cc4cc(-c5cnn(C)c5)ccc4cn3)ccn2)CC1", "middle"),
    ("CC1COCCN1c1cc(C2(S(C)(=N)=O)CC2)nc(-c2ccnc3[nH]ccc23)n1 (stereo not given) + CNC(=O)c1ccc(Nc2nc(OC3CCCC3)c3c(-c4ccc5nc(C)oc5c4)c[nH]c3n2)c(OC)c1", "middle"),
    ("COc1cccc2c1C(=O)c1c(O)c3c(c(O)c1C2=O)CC(O)(C(=O)CO)CC3OC1CC(N)C(O)C(C)O1 (stereo not given) + CN1CCN(c2cc(C(=O)Nc3cc4cc(-c5cnn(C)c5)ccc4cn3)ccn2)CC1", "lower"),
    ("C=CC(=O)N1CCN(c2nc(=O)n(-c3c(C)ccnc3C(C)C)c3nc(-c4c(O)cccc4F)c(F)cc23)C(C)C1 (stereo not given) + CN1CCN(c2cc(C(=O)Nc3cc4cc(-c5cnn(C)c5)ccc4cn3)ccn2)CC1", "upper"),
    ("CCCS(=O)(=O)Nc1ccc(F)c(C(=O)c2c[nH]c3ncc(-c4ccc(Cl)cc4)cc23)c1F + CN1CCN(c2cc(C(=O)Nc3cc4cc(-c5cnn(C)c5)ccc4cn3)ccn2)CC1", "upper"),
    ("CC(Nc1ccc2c(c1)OCCn1cc(N3C(=O)OCC3C(F)F)nc1-2)C(N)=O (stereo not given) + CN1CCN(c2cc(C(=O)Nc3cc4cc(-c5cnn(C)c5)ccc4cn3)ccn2)CC1", "upper"),
    ("COc1ccc([C@@H](O)c2cc(-c3ncnc4cc(N5CCOCC5)ccc34)c(F)cc2Cl)nn1 + CN1CCN(c2cc(C(=O)Nc3cc4cc(-c5cnn(C)c5)ccc4cn3)ccn2)CC1", "middle"),
    ("CC(=O)O[C@H]1C(=O)[C@@]2(C)[C@H]([C@H](OC(=O)c3ccccc3)[C@]3(O)C[C@H](OC(=O)[C@H](O)[C@@H](NC(=O)c4ccccc4)c4ccccc4)C(C)=C1C3(C)C)[C@]1(OC(C)=O)CO[C@@H]1C[C@@H]2O + CNC(=O)c1ccc(Nc2nc(OC3CCCC3)c3c(-c4ccc5nc(C)oc5c4)c[nH]c3n2)c(OC)c1", "upper"),
    ("CC(CO)NC(=O)c1cc(-c2ccc(Cl)cc2)nn(-c2cnn(C)c2)c1=O (stereo not given) + CN1CCN(c2cc(C(=O)Nc3cc4cc(-c5cnn(C)c5)ccc4cn3)ccn2)CC1", "upper"),
    ("C#Cc1c(F)ccc2cc(O)cc(-c3ncc4c(N5CC6CCC(C5)N6)nc(OCC56CCCN5CC(F)C6)nc4c3F)c12 (stereo not given) + CNC(=O)c1ccc(Nc2nc(OC3CCCC3)c3c(-c4ccc5nc(C)oc5c4)c[nH]c3n2)c(OC)c1", "upper"),
    ("COc1cccc2c1C(=O)c1c(O)c3c(c(O)c1C2=O)CC(O)(C(=O)CO)CC3OC1CC(N)C(O)C(C)O1 (stereo not given) + CNC(=O)c1ccc(Nc2nc(OC3CCCC3)c3c(-c4ccc5nc(C)oc5c4)c[nH]c3n2)c(OC)c1", "lower"),
    ("CC(Nc1ccc2c(c1)OCCn1cc(N3C(=O)OCC3C(F)F)nc1-2)C(N)=O (stereo not given) + CNC(=O)c1ccc(Nc2nc(OC3CCCC3)c3c(-c4ccc5nc(C)oc5c4)c[nH]c3n2)c(OC)c1", "middle"),
    ("CC1(C)CCC(CN2CCN(c3ccc(C(=O)NS(=O)(=O)c4ccc(NCC5CCOCC5)c([N+](=O)[O-])c4)c(Oc4cnc5[nH]ccc5c4)c3)CC2)=C(c2ccc(Cl)cc2)C1 + CNC(=O)c1ccc(Nc2nc(OC3CCCC3)c3c(-c4ccc5nc(C)oc5c4)c[nH]c3n2)c(OC)c1", "lower"),
    ("C=C(F)C(=O)N1CCN(c2nc(OCC3CCCN3C)nc3c2CCN(c2cccc4cccc(Cl)c24)C3)CC1CC#N (stereo not given) + CN1CCN(c2cc(C(=O)Nc3cc4cc(-c5cnn(C)c5)ccc4cn3)ccn2)CC1", "lower"),
]
